Target: isolated recombinant JAK2 kinase domain (Homo sapiens, UniProt O60674)
Construct: The activity of the isolated recombinant JAK1 and JAK2 kinase domain was measured
Sequence (O60674 849-1124 limits assumed): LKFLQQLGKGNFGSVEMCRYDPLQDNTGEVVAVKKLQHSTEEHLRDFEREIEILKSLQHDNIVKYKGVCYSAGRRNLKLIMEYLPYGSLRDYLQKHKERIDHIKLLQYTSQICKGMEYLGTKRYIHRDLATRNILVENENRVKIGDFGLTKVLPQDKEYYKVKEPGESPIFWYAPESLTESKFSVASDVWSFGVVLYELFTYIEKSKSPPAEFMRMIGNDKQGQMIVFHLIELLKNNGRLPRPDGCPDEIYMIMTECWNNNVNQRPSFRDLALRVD
Experiment: JAK2 enzyme assay (Caliper LabChip, Ki)
Conditions: 25 μM ATP
Protocol: JAK Enzyme Assays were Carried Out as Follows: The activity of the isolated recombinant JAK1 and JAK2 kinase domain was measured by monitoring phosphorylation of a peptide derived from JAK3 (Val-Ala-Leu-Val-Asp-Gly-Tyr-Phe-Arg-Leu-Thr-Thr, fluorescently labeled on the N-terminus with 5-carboxyfluorescein) using the Caliper LabChip® technology (Caliper Life Sciences, Hopkinton, Mass.). […]
MEASURED ENDPOINT: Ki (nM)
Return type: number; implicit unit nM.

# count of solved cases: 8
MOLECULE	READOUT UNITS	Ki
CC(C)Sc1ccc(OC(F)F)c(-c2nn(CC(=O)N3CCC(NCC4(C#N)CC4)CC3)cc2NC(=O)c2cnn3cccnc23)c1 [Example 115]	nM	1.6
CSc1ccc(OC(F)F)c(-c2nn(CC(=O)N3CCC(NCCCC#N)CC3)cc2NC(=O)c2cnn3cccnc23)c1 [Example 64]	nM	0.48
CSc1ccc(OC(F)F)c(-c2nn(CC(=O)N3CCC(CN4CCN(C(=O)CN(C)C)CC4)CC3)cc2NC(=O)c2cnn3cccnc23)c1 [Example 74]	nM	0.58
CC(C)Sc1ccc(OC(F)F)c(-c2nn(CC(=O)N3CCN(CCO)CC3)cc2NC(=O)c2cnn3cccnc23)c1 [Example 131]	nM	0.8
N#CC1(CNC2CCN(C(=O)Cn3cc(NC(=O)c4cnn5cccnc45)c(-c4cc(SC5CC5)ccc4OC(F)F)n3)CC2)CC1 [Example 166]	nM	0.72
CN(C1CCN(C(=O)Cn2cc(NC(=O)c3cnn4cccnc34)c(-c3cc(SC4CC4)ccc3OC(F)F)n2)CC1)C1COC1 [Example 171]	nM	0.78
CSc1ccc(OC(F)F)c(-c2nn(CC(=O)N3CCC(N4CCNC(=O)C4)CC3)cc2NC(=O)c2cnn3cccnc23)c1 [Example 15]	nM	0.38
CSc1ccc(OC(F)F)c(-c2nn(Cc3cn(C4CCN(C5COC5)CC4)nn3)cc2NC(=O)c2cnn3cccnc23)c1 [Example 90]	nM	0.14

Prompt: Param item = CSc1ccc(OC(F)F)c(-c2nn(CC(=O)N3CCC(N(C)CC(C)C#N)CC3)cc2NC(=O)c2cnn3cccnc23)c1 (stereo not drawn) [Example 29] ; retrieve measured Ki.
Completion: 0.37

Prompt: Param item = O=C(Nc1cn(Cc2cn(C3CCN(C4COC4)CC3)nn2)nc1-c1cc(SC2CC2)ccc1OC(F)F)c1cnn2cccnc12 [Example 174] ; retrieve measured Ki.
Completion: 0.21

Prompt: Param item = CCSc1ccc(OC(F)F)c(-c2n[nH]cc2NC(=O)c2cnn3cccnc23)c1 [Example 192] ; retrieve measured Ki.
Completion: 0.055

Prompt: Param item = CSc1ccc(OC(F)F)c(-c2nn(CC(=O)N3CCC(N4CCCC(C#N)C4)CC3)cc2NC(=O)c2cnn3cccnc23)c1 (stereo not drawn) [Example 31] ; retrieve measured Ki.
Completion: 0.25

Prompt: Param item = CSc1ccc(OC(F)F)c(-c2nn(CC(=O)N3CCC(NCC(C)(C)C#N)CC3)cc2NC(=O)c2cnn3cccnc23)c1 [Example 20] ; retrieve measured Ki.
Completion: 0.33

Prompt: Param item = CC(C)Sc1ccc(OC(F)F)c(-c2nn(CC(=O)N3CCN(CC4CCN(CC(=O)N(C)C)CC4)CC3)cc2NC(=O)c2cnn3cccnc23)c1 [Example 140] ; retrieve measured Ki.
Completion: 1.7

Prompt: Param item = CC(C)Sc1ccc(OC(F)F)c(-c2nn(C)cc2NC(=O)c2cnn3cccnc23)c1 [Example 144] ; retrieve measured Ki.
Completion: 0.14

From: patent US20180265515A1
